B1: Azoarcus group I ribozyme (parent)
chain: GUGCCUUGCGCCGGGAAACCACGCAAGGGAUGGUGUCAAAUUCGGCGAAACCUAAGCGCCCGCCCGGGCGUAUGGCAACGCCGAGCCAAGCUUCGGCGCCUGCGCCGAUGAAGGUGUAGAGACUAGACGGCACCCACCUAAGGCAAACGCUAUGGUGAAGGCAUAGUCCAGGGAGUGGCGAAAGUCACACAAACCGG

variants of: B1; assay: reverse-splicing fitness (ratio to wild type); higher = more active; in vitro selection; Mg2+ level not given
measure.name: reverse-splicing fitness

C82U C169U: 0.0149
A111C A120C A145G U176A: 0.19
A111C A120U A145G U176G: 0.0786
C82G A111U A145G C150A C169A: 0.0112
A111U A120U A145C C169U: 0.0629
A111U A120G C169U U176G: 0.00807
C82G A120G A145C C150G C169A U176G: 0.00487
C82U A111C A120G A145U U176A: 0.0148
C82U A120U A145C C150G C169G: 0.00257
C82G A111U A120U A145G C169U U176G: 0.00203
C82U A111C A120U A145G C150G C169U U176C: 0.00661
C82G A145G C150G: 0.05
C82G A111C A120C C150G C169A U176A: 0.00918
C82A A111U A120C C150U C169U U176C: 0.0145
A120U C150A C169A: 0.00484
C82A A111U A120G C150U U176C: 0.0178
A111G A145C C150G: 0.45
C82U A111G A120G C150G C169G U176C: 0.00458
C82G A111C A120G A145G C150G C169A U176A: 0.0144
C82G A111G A145U C169U U176G: 0.00489
A111U A120C C150G C169U U176C: 0.0162
A145C C150G C169U U176C: 0.0427
C82U A111U A120G C150G C169U U176A: 0.0122
C82G A145U C150U U176A: 0.236
C82A A120C A145G C150G C169A U176A: 0.0141
C82U A111U A120G A145G C150U C169A U176G: 0.00525
C82G A111C A120G A145U C169U U176G: 0.00395
A120G C150U C169A U176A: 0.0776
C82G A111U A120U A145C C150A U176G: 0.00209

The values you see were collected from the RNAGym collection of RNA variant scans (doi:10.1093/molbev/msab373).
